Molecular target: Serine/threonine-protein kinase B-raf (Homo sapiens, UniProt P15056, V600E)
Sequence (P15056 2-766 V600E limits assumed): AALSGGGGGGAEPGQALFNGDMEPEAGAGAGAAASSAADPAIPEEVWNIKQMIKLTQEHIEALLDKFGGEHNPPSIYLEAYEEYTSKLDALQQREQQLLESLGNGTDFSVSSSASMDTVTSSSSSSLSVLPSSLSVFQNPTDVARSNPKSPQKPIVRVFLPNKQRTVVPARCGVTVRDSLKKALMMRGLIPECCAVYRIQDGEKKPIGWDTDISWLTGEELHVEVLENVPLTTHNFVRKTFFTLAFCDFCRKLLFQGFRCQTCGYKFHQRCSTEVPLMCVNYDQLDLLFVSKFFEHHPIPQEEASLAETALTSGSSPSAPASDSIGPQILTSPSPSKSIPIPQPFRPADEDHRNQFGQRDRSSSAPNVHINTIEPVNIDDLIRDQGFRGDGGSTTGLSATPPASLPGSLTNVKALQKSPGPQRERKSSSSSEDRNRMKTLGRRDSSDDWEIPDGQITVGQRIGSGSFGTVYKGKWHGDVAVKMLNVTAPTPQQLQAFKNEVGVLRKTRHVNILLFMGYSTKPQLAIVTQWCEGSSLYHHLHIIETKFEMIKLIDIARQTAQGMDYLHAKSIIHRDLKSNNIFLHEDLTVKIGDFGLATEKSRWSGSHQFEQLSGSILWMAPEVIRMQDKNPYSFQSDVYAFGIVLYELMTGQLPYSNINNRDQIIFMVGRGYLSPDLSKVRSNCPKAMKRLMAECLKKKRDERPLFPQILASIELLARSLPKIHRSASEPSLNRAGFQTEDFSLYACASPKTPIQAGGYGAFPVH
Test: Inhibition of BRAF V600E mutant
Conditions: read-out: IC50
measure.name: IC50 (nM)

INSERT INTO assay_data (smiles_structure, recorded_value) VALUES
  ('O=C1CC(c2cccc(NC(=O)c3ccc(Cl)c(C(F)(F)F)c3)c2)=Nc2cnn(Cc3ccccc3)c2N1', 655);

###

Experiment: Growth inhibition of human A375P cells after 24 hrs by MTT assay
Assay type: functional
Entries and their measured GI50 follow.
measure.name: GI50 (nM)

INSERT INTO measurements (molecule, prefix_operator, recorded_value) VALUES
  ('CNC(=O)c1cc(Oc2ccc(NC(=O)Nc3ccc(Cl)c(C(F)(F)F)c3)cc2)ccn1 [SORAFENIB]', '=', 5580),
  ('O=C1CC(c2ccc(NC(=O)Nc3cccc(Cl)c3)cc2)=Nc2cnn(Cc3ccccc3)c2N1', '=', 2070),
  ('O=C1CC(c2ccc(NC(=O)Nc3ccc(Cl)c(C(F)(F)F)c3)cc2)=Nc2cnn(Cc3ccccc3)c2N1', '=', 1190),
  ('O=C1CC(c2cccc(NC(=O)Nc3ccc(Cl)c(Cl)c3)c2)=Nc2cn[nH]c2N1', '>', 30000),
  ('COc1ccc(Cn2ncc3c2NC(=O)CC(c2ccc(NC(=O)Nc4ccc(Cl)c(C(F)(F)F)c4)cc2)=N3)cc1', '=', 3930),
  ('O=C1CC(c2cccc(NC(=O)c3ccc(Cl)c(C(F)(F)F)c3)c2)=Nc2cnn(Cc3ccccc3)c2N1', '=', 430),
  ('O=C1CC(c2cccc(NC(=O)c3ccc(N4CCOCC4)c(C(F)(F)F)c3)c2)=Nc2cnn(Cc3ccccc3)c2N1', '=', 2910),
  ('O=C1CC(c2cccc(NC(=O)Nc3ccc(Cl)cc3)c2)=Nc2cn[nH]c2N1', '>', 30000);
